Parameter: EC50, IFNγ stimulation, NK92 cells. Scope: all listed entries.
Molecular target: T1, IL-18 receptor (IL-18Rα/IL-18Rβ) on cells (HEK-Blue IL18R reporter cells, NK-92, KG-1) (human, UniProt Q13478 19-541; O95256 20-599)
T1 sequence (looked up) 1: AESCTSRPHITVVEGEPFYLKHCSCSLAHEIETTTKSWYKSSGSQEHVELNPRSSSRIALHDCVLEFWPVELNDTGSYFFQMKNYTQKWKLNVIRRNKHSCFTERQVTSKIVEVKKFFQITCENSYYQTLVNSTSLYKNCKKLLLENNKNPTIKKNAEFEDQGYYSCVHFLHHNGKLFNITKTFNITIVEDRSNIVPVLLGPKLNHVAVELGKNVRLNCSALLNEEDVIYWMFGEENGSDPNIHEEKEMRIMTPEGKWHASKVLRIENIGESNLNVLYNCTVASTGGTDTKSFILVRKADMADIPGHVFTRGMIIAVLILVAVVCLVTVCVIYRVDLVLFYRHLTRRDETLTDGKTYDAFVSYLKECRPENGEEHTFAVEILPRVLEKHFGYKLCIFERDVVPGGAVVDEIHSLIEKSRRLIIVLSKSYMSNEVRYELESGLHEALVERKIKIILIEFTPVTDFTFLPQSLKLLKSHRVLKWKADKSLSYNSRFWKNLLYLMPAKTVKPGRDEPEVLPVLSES
T1 sequence (looked up) 2: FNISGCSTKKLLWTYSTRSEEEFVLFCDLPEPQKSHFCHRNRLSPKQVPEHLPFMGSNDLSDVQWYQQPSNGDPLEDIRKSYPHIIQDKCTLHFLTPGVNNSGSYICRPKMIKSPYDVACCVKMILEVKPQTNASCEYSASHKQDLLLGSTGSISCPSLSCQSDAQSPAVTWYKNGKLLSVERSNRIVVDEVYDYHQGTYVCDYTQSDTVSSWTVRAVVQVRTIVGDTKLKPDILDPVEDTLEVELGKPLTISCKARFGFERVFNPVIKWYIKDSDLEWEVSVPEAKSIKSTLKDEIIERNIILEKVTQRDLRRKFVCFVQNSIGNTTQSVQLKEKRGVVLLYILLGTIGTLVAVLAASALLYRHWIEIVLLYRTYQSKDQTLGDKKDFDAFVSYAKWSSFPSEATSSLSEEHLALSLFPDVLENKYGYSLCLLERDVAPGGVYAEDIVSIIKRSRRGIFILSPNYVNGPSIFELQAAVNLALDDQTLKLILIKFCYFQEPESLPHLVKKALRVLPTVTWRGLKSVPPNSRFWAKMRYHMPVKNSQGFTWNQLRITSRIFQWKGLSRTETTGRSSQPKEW
Test: cell-based or functional assay
Provide only the numeric value, understood in pM.

Below: 2 binders and their reported EC50, IFNγ stimulation, NK92 cells.
1) IL-18 polypeptide C155 (ligand, also called V11I, C38A, D40A, K53A, C76A, C127A) YFGKLESKLSIIRNLNDQVLFIDQGNRPLFEDMTDSDARANAPRTIFIISMYADSQPRGMAVTISVKCEKISTLSAENKIISFKEMNPPDNIKDTKSDIIFFQRSVPGHDNKMQFESSSYEGYFLAAEKERDLFKLILKKEDELGDRSIMFTVQNED : 67
2) IL-18 polypeptide of SEQ ID NO: 9 (E6K, C38A, K53A, C68A, D98C) (ligand) YFGKLKSKLSVIRNLNDQVLFIDQGNRPLFEDMTDSDARDNAPRTIFIISMYADSQPRGMAVTISVKAEKISTLSCENKIISFKEMNPPDNIKDTKSCIIFFQRSVPGHDNKMQFESSSYEGYFLACEKERDLFKLILKKEDELGDRSIMFTVQNED : 69

Now consider a different binder.
Data request: Need EC50, IFNγ stimulation, NK92 cells of IL-18 polypeptide C164 (ligand, also called V11I, C38A, S55H, C76A, C127A) YFGKLESKLSIIRNLNDQVLFIDQGNRPLFEDMTDSDARDNAPRTIFIISMYKDHQPRGMAVTISVKCEKISTLSAENKIISFKEMNPPDNIKDTKSDIIFFQRSVPGHDNKMQFESSSYEGYFLAAEKERDLFKLILKKEDELGDRSIMFTVQNED , thanks.
Data returned: 414
